Reference source: patent US20150239980A1

fold over rodent (competitive ELISA) listing for selected binders.
Target: T1, recombinant hMCAM-His (human, UniProt P43121 24-559)
T1 construct: not shown: His tag
T1 chain: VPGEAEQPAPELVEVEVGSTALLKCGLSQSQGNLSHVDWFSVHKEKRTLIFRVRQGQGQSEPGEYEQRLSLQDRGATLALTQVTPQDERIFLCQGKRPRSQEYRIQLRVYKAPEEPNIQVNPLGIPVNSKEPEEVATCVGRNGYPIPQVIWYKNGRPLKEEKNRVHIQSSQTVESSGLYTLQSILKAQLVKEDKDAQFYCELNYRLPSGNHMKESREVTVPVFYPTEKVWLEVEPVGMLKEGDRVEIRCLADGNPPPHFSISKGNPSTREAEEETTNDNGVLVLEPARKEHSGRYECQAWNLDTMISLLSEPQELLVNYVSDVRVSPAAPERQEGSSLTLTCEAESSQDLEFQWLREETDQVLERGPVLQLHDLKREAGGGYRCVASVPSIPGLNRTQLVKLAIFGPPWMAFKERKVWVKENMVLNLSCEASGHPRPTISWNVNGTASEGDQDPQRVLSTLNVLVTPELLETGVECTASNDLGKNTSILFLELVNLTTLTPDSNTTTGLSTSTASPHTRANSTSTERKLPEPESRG
Experiment: competitive ELISA on hMCAM-His, competitor biotinylated rodent or chimeric 2107; Expt. #2; vs rodent 2107
reported_metric: fold over rodent (competitive ELISA)

{"columns": ["binder", "reported_metric", "experimental_value"],
 "data": [
  ["chimeric 2107 (antibody, V domains shown) VH: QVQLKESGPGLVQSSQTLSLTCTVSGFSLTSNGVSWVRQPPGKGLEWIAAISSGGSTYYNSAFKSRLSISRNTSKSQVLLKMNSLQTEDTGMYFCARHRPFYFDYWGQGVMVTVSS VL: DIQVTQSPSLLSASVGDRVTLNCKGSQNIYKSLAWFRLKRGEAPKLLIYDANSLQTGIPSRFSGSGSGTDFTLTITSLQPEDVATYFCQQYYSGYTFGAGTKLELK", "fold over rodent (competitive ELISA)", "1.01 fold"],
  ["h2107_VH1 + h2107_VL2 (antibody, human IgG1, V domains shown, also called VH1VL2) VH: QVTLKESGPVLVKPTETLTLTCTVSGFSLTSNGVSWVRQPPGKALEWIAAISSGGSTYYNSAFKSRLTISRDTSKSQVVLTMTNMDPVDTATYYCARHRPFYFDYWGQGTLVTVSS VL: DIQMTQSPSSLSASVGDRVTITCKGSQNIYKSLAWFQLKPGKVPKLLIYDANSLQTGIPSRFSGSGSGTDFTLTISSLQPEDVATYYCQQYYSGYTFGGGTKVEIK", "fold over rodent (competitive ELISA)", "1.32 fold"],
  ["rat anti-human MCAM monoclonal antibody clone 2107.4.10 (antibody, V domains shown, rat hybridoma antibody; elsewhere '83 or 84'); also called rodent 2107; murine 2107.4.10.18 anti-MCAM antibody) VH: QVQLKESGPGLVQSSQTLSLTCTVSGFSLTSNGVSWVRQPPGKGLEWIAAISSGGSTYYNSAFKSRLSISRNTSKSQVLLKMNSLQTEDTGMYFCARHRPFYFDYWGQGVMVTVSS VL: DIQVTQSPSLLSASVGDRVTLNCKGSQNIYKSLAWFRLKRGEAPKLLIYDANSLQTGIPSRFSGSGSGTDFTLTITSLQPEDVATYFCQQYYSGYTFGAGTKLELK", "fold over rodent (competitive ELISA)", "1 fold"]
]}
